experiment.notes: Absorption-maximum wavelength λmax, molar extinction coefficient ε and solution colour in each solvent
Type: physicochemical
condition.label: n-decane solution
readout: Color tone

Consider the worked cases shown below.
CCCCC(CC)CN(CC(CC)CCCC)c1ccc(N=Nc2sc(C=C(C#N)C#N)c(Cl)c2C#N)c(NC(=O)C(CC)CCCC)c1 (stereo not shown) [Compound 11] = blue
CCCCc1ccc(N=Nc2cc(C#N)c(N=Nc3cc(OC)c(N(CC(CC)CCCC)CC(CC)CCCC)cc3C)s2)cc1 (stereo not shown) [Compound 7] = blue
CCCCOc1ccc(N=Nc2sc(N=Nc3ccc(N(CC(CC)CCCC)CC(CC)CCCC)cc3Cl)nc2C)cc1 (stereo not shown) [Compound 14] = red
CCCCC(CC)COC(=O)C(C#N)=Cc1sc(N=Nc2cc(OC)c(N(CC(CC)CCCC)CC(CC)CCCC)cc2NC(C)=O)nc1Cl (stereo not shown) [Compound 10] = blue
CCCCC(CC)CN(CC(CC)CCCC)c1ccc(N=Nc2sc(N=Nc3ccc(C(=O)OCC(C)C)cc3)cc2C#N)c(CC)c1 (stereo not shown) [Compound 2] = blue

Give the measured Color tone of CCCCc1ccc(N=Nc2cc(C#N)c(/N=N/c3ccc(N(CC(CC)CCCC)CC(CC)CCCC)cc3C)s2)cc1 (stereo not shown) [Compound 15] .
blue

C=CCn1c(N=Nc2ccc(N(CCC)CCC)cc2NC(C)=O)nc(C#N)c1C#N [Comparative example compound 2, reference compound] , same question.
red

###

experiment.notes: Solubility of solvent in water at 25° C.
Assay type: physicochemical
condition.label: pure water, thermodynamic from solid, single solvent
readout: solubility at 4 h

Give the measured solubility at 4 h of CCCCCCCCCC [n-decane] .
≤ 1 µg/mL

###

experiment.notes: Absorption-maximum wavelength λmax, molar extinction coefficient ε and solution colour in each solvent
Type: physicochemical
condition.label: Isopar M, at absorption-maximum wavelength
readout: ε (L/mol/cm)
A number alone suffices; assume L/mol/cm.

Consider the worked cases shown below.
CCCCC(CC)CNc1ccc(NCC(CC)CCCC)c2c1C(=O)c1ccccc1C2=O (stereo not shown) [Comparative example compound 1, reference compound] = 17000
CCCCc1ccc(N=Nc2cc(C#N)c(N=Nc3cc(OC)c(N(CC(CC)CCCC)CC(CC)CCCC)cc3NC(C)=O)s2)cc1 (stereo not shown) [Compound 3] = 72000
CCCCC(CC)CN(CC(CC)CCCC)c1cc(NC(C)=O)c(/N=N/c2nc(Cl)c(C=O)s2)cc1OC (stereo not shown) [Compound 9] = 59000

Give the measured ε of CCCCC(CC)COC(=O)c1ccc(N=Nc2cc(C#N)c(N=Nc3ccc(N(CC(CC)CCCC)CC(CC)CCCC)cc3NC(C)=O)s2)cc1 (stereo not shown) [Compound 8] .
78000

###

experiment.notes: Solubility C (saturated concentration at 5° C.) of compound in low-polarity solvent and product εC
Type: physicochemical
condition.label: Isopar M, C at 5° C.
readout: ε · C

CCCCC(CC)COC(=O)c1ccc(N=Nc2cc(C#N)c(N=Nc3ccc(N(CC(CC)CCCC)CC(CC)CCCC)cc3NC(C)=O)s2)cc1 (stereo not drawn) = 3400 cm⁻¹
CCCCC(CC)COC(=O)C(C#N)=Cc1sc(N=Nc2cc(OC)c(N(CC(CC)CCCC)CC(CC)CCCC)cc2NC(C)=O)nc1Cl (stereo not drawn) = 5500 cm⁻¹

// next item, ε · C requested
Give the measured ε · C of C=CCn1c(N=Nc2ccc(N(CCC)CCC)cc2NC(C)=O)nc(C#N)c1C#N [Comparative example compound 2, reference compound] .
≤ 10 or cm^−1

###

experiment.notes: Absorption-maximum wavelength λmax, molar extinction coefficient ε and solution colour in each solvent
Assay type: physicochemical
condition.label: Isopar M
Measured Absorption-maximum wavelength accompanies every entry in the list below.
A number alone suffices; assume nm.

Consider the worked cases shown below.
CCCCC(CC)COC(=O)C(C#N)=Cc1sc(N=Nc2cc(OC)c(N(CC(CC)CCCC)CC(CC)CCCC)cc2NC(C)=O)nc1Cl (stereo not drawn) = 657
CCCCC(CC)COC(=O)c1ccc(N=Nc2cc(C#N)c(N=Nc3ccc(N(CC(CC)CCCC)CC(CC)CCCC)cc3NC(C)=O)s2)cc1 (stereo not drawn) = 638

// next item, Absorption-maximum wavelength requested
Give the measured Absorption-maximum wavelength of CCCCC(CC)CNc1ccc(NCC(CC)CCCC)c2c1C(=O)c1ccccc1C2=O (stereo not drawn) [Comparative example compound 1, reference compound] .
651

###

experiment.notes: Absorption-maximum wavelength λmax, molar extinction coefficient ε and solution colour in each solvent
Format: physicochemical
condition.label: n-decane
Measured Absorption-maximum wavelength accompanies every entry in the list below.
A number alone suffices; assume nm.

CCCCC(CC)CNc1ccc(NCC(CC)CCCC)c2c1C(=O)c1ccccc1C2=O (stereo not shown) [Comparative example compound 1, reference compound] = 652
CCCCC(CC)COC(=O)c1ccc(N=Nc2cc(C#N)c(N=Nc3ccc(N(CC(CC)CCCC)CC(CC)CCCC)cc3NC(C)=O)s2)cc1 (stereo not shown) = 637
CCCCC(CC)CN(CC(CC)CCCC)c1ccc(/N=N/c2sc(N=Nc3ccc(C(=O)OCC(C)C)cc3)cc2C#N)c(C(C)C)c1 (stereo not shown) = 638
CCCCC(CC)CN(CC(CC)CCCC)c1cc(NC(C)=O)c(/N=N/c2nc(Cl)c(C=O)s2)cc1OC (stereo not shown) = 617
CCCCC(CC)CN(CC(CC)CCCC)c1ccc(N=Nc2sc(N=Nc3ccc(C(=O)OCC(C)C)cc3)cc2C#N)c(CC)c1 (stereo not shown) = 635

Give the measured Absorption-maximum wavelength of CCCCc1ccc(N=Nc2cc(C#N)c(/N=N/c3ccc(N(CC(CC)CCCC)CC(CC)CCCC)cc3NC(C)=O)s2)cc1 (stereo not shown) .
619

CCCCc1ccc(N=Nc2cc(C#N)c(/N=N/c3ccc(N(CC(CC)CCCC)CC(CC)CCCC)cc3C)s2)cc1 (stereo not shown) , same question.
613

###

experiment.notes: Absorption-maximum wavelength λmax, molar extinction coefficient ε and solution colour in each solvent
Assay type: physicochemical
condition.label: tetradecane solution
readout: Color tone

Consider the worked cases shown below.
CCCCC(CC)COC(=O)C(C#N)=Cc1sc(N=Nc2cc(OC)c(N(CC(CC)CCCC)CC(CC)CCCC)cc2NC(C)=O)nc1Cl (stereo not drawn) = blue
CCCCC(CC)CN(CC(CC)CCCC)c1ccc(N=Nc2sc(N=Nc3ccc(C(=O)OCC(C)C)cc3)cc2C#N)c(CC)c1 (stereo not drawn) = blue
CCCCC(CC)COC(=O)c1ccc(N=Nc2cc(C#N)c(N=Nc3ccc(N(CC(CC)CCCC)CC(CC)CCCC)cc3C)s2)cc1 (stereo not drawn) = blue
CCCCC(CC)COC(=O)c1ccc(N=Nc2cc(C#N)c(N=Nc3ccc(N(CC(CC)CCCC)CC(CC)CCCC)cc3NC(C)=O)s2)cc1 (stereo not drawn) = blue
CCCCC(CC)CN(CC(CC)CCCC)c1cc(NC(C)=O)c(/N=N/c2nc(Cl)c(C=O)s2)cc1OC (stereo not drawn) = blue
CCCCc1ccc(N=Nc2cc(C#N)c(N=Nc3cc(OC)c(N(CC(CC)CCCC)CC(CC)CCCC)cc3NC(C)=O)s2)cc1 (stereo not drawn) = blue

Give the measured Color tone of C=CCn1c(N=Nc2ccc(N(CCC)CCC)cc2NC(C)=O)nc(C#N)c1C#N [Comparative example compound 2, reference compound] .
red

CCCCC(CC)CN(CC(CC)CCCC)c1ccc(/N=N/c2sc(N=Nc3ccc(C(=O)OCC(C)C)cc3)cc2C#N)c(C(C)C)c1 (stereo not drawn) , same question.
blue

CCCCC(CC)CNc1ccc(NCC(CC)CCCC)c2c1C(=O)c1ccccc1C2=O (stereo not drawn) [Comparative example compound 1, reference compound] , same question.
blue

###

Measured solubility at 24 h accompanies every entry in the list below.
experiment.notes: Solubility C (saturated concentration at 5° C.) of compound in low-polarity solvent and product εC
Type: physicochemical
condition.label: organic solvent or mixture, thermodynamic from solid; in tetradecane, at 5° C.
A number alone suffices; assume mM.

Consider the worked cases shown below.
CCCCC(CC)CN(CC(CC)CCCC)c1cc(NC(C)=O)c(/N=N/c2nc(Cl)c(C=O)s2)cc1OC (stereo not shown) = 34
CCCCC(CC)CN(CC(CC)CCCC)c1ccc(/N=N/c2sc(N=Nc3ccc(C(=O)OCC(C)C)cc3)cc2C#N)c(C(C)C)c1 (stereo not shown) = 20

Give the measured solubility at 24 h of CCCCC(CC)CNc1ccc(NCC(CC)CCCC)c2c1C(=O)c1ccccc1C2=O (stereo not shown) [Comparative example compound 1, reference compound] .
94

###

Measured Solubility accompanies every entry in the list below.
experiment.notes: Solubility C (saturated concentration at 5° C.) of compound in low-polarity solvent and product εC
Type: physicochemical
condition.label: in n-decane, at 5° C.
A number alone suffices; assume mM.

Give the measured Solubility of CCCCc1ccc(N=Nc2cc(C#N)c(N=Nc3cc(OC)c(N(CC(CC)CCCC)CC(CC)CCCC)cc3NC(=O)CC)s2)cc1 (stereo not drawn) .
59

CCCCC(CC)CN(CC(CC)CCCC)c1cc(NC(C)=O)c(N=Nc2sc(C(=O)OCC)c(C)c2C(=O)OCC)cc1OC (stereo not drawn) , same question.
250

CCCCC(CC)COC(=O)c1ccc(N=Nc2cc(C#N)c(N=Nc3ccc(N(CC(CC)CCCC)CC(CC)CCCC)cc3NC(C)=O)s2)cc1 (stereo not drawn) , same question.
59
